# System: Acinetobacter baumannii
# Experiment notes: Antimicrobial activity against Acinetobacter baumannii BM4579 expressing deltaadeIJK genes isolated from patient with urinary tract infection by E test
# Format: functional
# Test context: BM4579, Urine
Threshold 6 µg/mL. MIC below it: yes (1). MIC at it or above: no (0).

Answered cases to consult:
1. O=C(N[C@H](CO)[C@H](O)c1ccc([N+](=O)[O-])cc1)C(Cl)Cl ... no (0)
2. CCC[C@@H]1C[C@@H](C(=O)N[C@@H]([C@H]2O[C@H](SC)[C@H](O)[C@@H](O)[C@H]2O)[C@H](C)Cl)N(C)C1 ... no (0)
3. C[C@@H](O)[C@H]1C(=O)N2C(C(=O)O)=C(SCCNC=N)C[C@H]12 [IMIPENEM ANHYDROUS] ... yes (1)
4. CN(C)c1cc(NC(=O)CNC(C)(C)C)c(O)c2c1C[C@H]1C[C@H]3[C@H](N(C)C)C(O)=C(C(N)=O)C(=O)[C@@]3(O)C(O)=C1C2=O ... yes (1)
5. CC[C@H]1OC(=O)[C@H](C)[C@@H](O[C@H]2C[C@@](C)(OC)[C@@H](O)[C@H](C)O2)[C@H](C)[C@@H](O[C@@H]2O[C@H](C)C[C@H](N(C)C)[C@H]2O)[C@](C)(O)C[C@@H](C)C(=O)[C@H](C)[C@@H](O)[C@]1(C)O ... no (0)

We now examine a further compound.
Enquiry: Please state whether MIC is below 6 µg/mL for `CC[C@H]1OC(=O)[C@H](C)[C@@H](O[C@H]2C[C@@](C)(OC)[C@@H](O)[C@H](C)O2)[C@H](C)[C@@H](O[C@@H]2O[C@H](C)C[C@H](N(C)C)[C@H]2O)[C@](C)(O)C[C@@H](C)CN(C)[C@H](C)[C@@H](O)[C@]1(C)O`
Return: no (0)

----------
# System: Acinetobacter baumannii
# Experiment notes: Antimicrobial activity against Acinetobacter baumannii BM4651 expressing deltaadeABC genes isolated from patient with urinary tract infection by E test
# Test context: BM4651, Urine
Param label: returns Met when MIC < 8 µg/mL, returns Not met otherwise, including exact equality.

1. CO[C@H]1/C=C/O[C@@]2(C)Oc3c(C)c(O)c4c(O)c(c(/C=N/N5CCN(C)CC5)c(O)c4c3C2=O)NC(=O)/C(C)=C\C=C\[C@H](C)[C@H](O)[C@@H](C)[C@@H](O)[C@@H](C)[C@H](OC(C)=O)[C@@H]1C ... Met

Enquiry: Please let me know if `O=C(N[C@H](CO)[C@H](O)c1ccc([N+](=O)[O-])cc1)C(Cl)Cl` shows MIC below 8 µg/mL.
Return: Not met

Enquiry: Please indicate whether the reported MIC of `COc1c(N2C[C@@H]3CCCN[C@@H]3C2)c(F)cc2c(=O)c(C(=O)O)cn(C3CC3)c12` is strictly below 8 µg/mL.
Return: Met

Enquiry: I wonder whether `CN(C)c1ccc(O)c2c1C[C@H]1C[C@H]3[C@H](N(C)C)C(O)=C(C(N)=O)C(=O)[C@@]3(O)C(O)=C1C2=O` has MIC below 8 µg/mL. Can you tell?
Return: Met

Enquiry: Please determine if `CCC[C@@H]1C[C@@H](C(=O)N[C@@H]([C@H]2O[C@H](SC)[C@H](O)[C@@H](O)[C@H]2O)[C@H](C)Cl)N(C)C1` is below 8 µg/mL in terms of MIC.
Return: Not met

Enquiry: Hi there! Is MIC for `C[C@H]1COc2c(N3CCN(C)CC3)c(F)cc3c(=O)c(C(=O)O)cn1c23.C[C@H]1COc2c(N3CCN(C)CC3)c(F)cc3c(=O)c(C(=O)O)cn1c23.O` below 8 µg/mL, do you know?
Return: Met

Source of measurements: ChEMBL document CHEMBL1152472
